- EXPERIMENTAL TARGET: Human Recombinant Matriptase 2 (Homo sapiens, UniProt Q8IU80)
- Construct: made in house
- Sequence (Q8IU80 whole entry): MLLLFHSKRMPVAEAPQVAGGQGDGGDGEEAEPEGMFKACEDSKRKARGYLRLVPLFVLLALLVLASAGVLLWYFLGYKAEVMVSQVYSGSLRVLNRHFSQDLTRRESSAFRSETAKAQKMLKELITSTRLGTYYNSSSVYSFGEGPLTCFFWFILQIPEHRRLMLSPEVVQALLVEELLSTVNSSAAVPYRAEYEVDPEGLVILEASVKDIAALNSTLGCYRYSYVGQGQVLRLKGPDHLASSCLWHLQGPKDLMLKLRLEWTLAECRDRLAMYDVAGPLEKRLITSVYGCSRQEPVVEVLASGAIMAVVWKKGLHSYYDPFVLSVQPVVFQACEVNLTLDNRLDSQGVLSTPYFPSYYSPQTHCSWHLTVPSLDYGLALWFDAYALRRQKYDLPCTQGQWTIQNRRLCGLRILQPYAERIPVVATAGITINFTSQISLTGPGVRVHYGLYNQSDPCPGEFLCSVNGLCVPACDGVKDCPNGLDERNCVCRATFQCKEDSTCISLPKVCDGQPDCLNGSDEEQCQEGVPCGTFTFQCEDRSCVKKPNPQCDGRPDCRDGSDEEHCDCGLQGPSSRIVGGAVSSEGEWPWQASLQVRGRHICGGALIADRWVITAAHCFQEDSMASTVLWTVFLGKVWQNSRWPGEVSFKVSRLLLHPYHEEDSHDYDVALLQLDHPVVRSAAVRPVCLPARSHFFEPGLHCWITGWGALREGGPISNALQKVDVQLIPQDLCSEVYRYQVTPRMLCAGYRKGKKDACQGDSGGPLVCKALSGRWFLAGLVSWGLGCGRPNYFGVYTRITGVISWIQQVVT
- PROTOCOL DETAILS: Matriptase 2 inhibition, fluorescence based assay (Method I)
- Type: biochemical
- STUDY CONDITIONS: Table A; Ki of Matriptase-2; read-out: Mat-2 Ki
// reported Ki for each item listed

>  <COMPOUND>
CC(C)N(CCOC(=O)c1cc2ccc(CN)nc2n1Cc1cc(NS(=O)(=O)Cc2ccccc2)cc2ccccc12)C(C)C

>  <Ki>
100 to 500 nM

$$$$
>  <COMPOUND>
CN1CCC(COC(=O)c2cc3ccc(CN)nc3n2Cc2cc(NS(=O)(=O)C(F)(F)c3ccccc3)cc3ccccc23)CC1

>  <Ki>
≤ 100 nM

$$$$
>  <COMPOUND>
CC(C)(C)n1cncc1CCOC(=O)c1cc2ccc(CN)nc2n1Cc1cc(NS(=O)(=O)Cc2ccccc2)cc2ccccc12

>  <Ki>
100 to 500 nM

$$$$
>  <COMPOUND>
CC(C)n1ccc(COC(=O)c2cc3ccc(CN)nc3n2Cc2cc(NS(=O)(=O)Cc3ccccc3)cc3ccccc23)n1

>  <Ki>
100 to 500 nM

$$$$
>  <COMPOUND>
Cc1cccc(C)c1CS(=O)(=O)Nc1cc(Cn2c(C(=O)OCC3CCN(C)CC3)cc3ccc(CN)nc32)c2ccccc2c1

>  <Ki>
≤ 100 nM

$$$$
>  <COMPOUND>
NCc1ccc2cc(C(=O)OCCO)n(Cc3cc(NS(=O)(=O)Cc4ccccc4)cc4ccccc34)c2n1

>  <Ki>
100 to 500 nM

$$$$
>  <COMPOUND>
NCc1ccc2cc(C(=O)OCc3cn(CC(F)(F)F)cn3)n(Cc3cc(NS(=O)(=O)Cc4ccccc4)cc4ccccc34)c2n1

>  <Ki>
100 to 500 nM

$$$$
>  <COMPOUND>
CC(CCN(C)C)S(=O)(=O)Nc1cc(Cn2c(C(=O)O)cc3ccc(CN)nc32)c2ccccc2c1 (racemic)

>  <Ki>
100 to 500 nM

$$$$

###

- EXPERIMENTAL TARGET: Human Recombinant Matriptase 2 (Homo sapiens)
- Construct: made in house
- PROTOCOL DETAILS: Matriptase 2 inhibition, fluorescence based assay (Method I)
- Assay type: biochemical
- STUDY CONDITIONS: Table A; Ki of Matriptase-2 given as class symbols; read-out: Mat-2 Ki
pKi: −log10 of the molar value.

>  <MOLECULE>
CN1CCC(CS(=O)(=O)Nc2cc(Cn3c(C(=O)O)cc4ccc(CN)nc43)c3ccccc3c2)CC1 [Compound 237]

>  <pKi>
6.30 to 7.00

$$$$
>  <MOLECULE>
COCCN1CCC(CS(=O)(=O)Nc2cc(Cn3c(C(=O)O)cc4ccc(CN)cc43)c3ccccc3c2)CC1 [Compound 390]

>  <pKi>
6.30 to 7.00

$$$$
>  <MOLECULE>
NCc1ccc2cc(C(=O)O)n(Cc3cc(NS(=O)(=O)[C@H]4CCOC4)cc4ccccc34)c2n1 (racemic) [Compound 273]

>  <pKi>
5.52 to 6.30

$$$$
>  <MOLECULE>
COCCN1CCN(C(=O)Nc2cc(Cn3c(C(=O)O)cc4ccc(CN)nc43)c3ccccc3c2)CC1 [Compound 288]

>  <pKi>
6.30 to 7.00

$$$$
>  <MOLECULE>
CC(c1ccccc1)S(=O)(=O)Nc1cc(Cn2c(C(=O)OCC3CCN(C)CC3)cc3ccc(CN)cc32)c2ccccc2c1 (racemic) [Compound 380]

>  <pKi>
≥ 7.00

$$$$
>  <MOLECULE>
CN1CCC[C@H]1COC(=O)Nc1cc(Cn2c(C(=O)O)cc3ccc(CN)nc32)c2ccccc2c1 [Compound 334]

>  <pKi>
6.30 to 7.00

$$$$
>  <MOLECULE>
CN(C)CCCCOC(=O)c1cc2ccc(CN)cc2n1Cc1cc(NS(=O)(=O)Cc2ccccc2)cc2ccccc12 [Compound 384]

>  <pKi>
6.30 to 7.00

$$$$
>  <MOLECULE>
CN1CCC(COC(=O)c2cc3ccc(CN)nc3n2Cc2cc(NS(=O)(=O)Cc3ccccc3O)cc3ccccc23)CC1 [Compound 203]

>  <pKi>
≥ 7.00

$$$$
>  <MOLECULE>
NCc1ccc2cc(-c3ncn[nH]3)n(Cc3cc(NS(=O)(=O)Cc4ccccc4)cc4ccccc34)c2n1 [Compound 352]

>  <pKi>
≥ 7.00

$$$$
>  <MOLECULE>
NCc1ccc2cc(C(=O)O)n(Cc3cc(NS(=O)(=O)Cc4ccccn4)cc4ccccc34)c2n1 [Compound 222]

>  <pKi>
6.30 to 7.00

$$$$
>  <MOLECULE>
NCc1ccc2cc(C(=O)O)n(Cc3cc(NC(=O)N4CC5CCCC5C4)cc4ccccc34)c2n1 (stereo not shown) [Compound 297]

>  <pKi>
5.52 to 6.30

$$$$
>  <MOLECULE>
CC(C)(C)OC(=O)N1CCC(CCS(=O)(=O)Nc2cc(Cn3c(C(=O)O)cc4ccc(CN)nc43)c3ccccc3c2)CC1 [Compound 274]

>  <pKi>
5.52 to 6.30

$$$$
>  <MOLECULE>
NCc1ccc2cc(C(=O)O)n(Cc3cc(NC(=O)OC[C@H]4CCN4Cc4ccccc4)cc4ccccc34)c2n1 (racemic) [Compound 340]

>  <pKi>
5.52 to 6.30

$$$$
>  <MOLECULE>
Cc1oc(=O)oc1COC(=O)NCc1ccc2cc(C(=O)O)n(Cc3cc(NS(=O)(=O)Cc4ccccc4)cc4ccccc34)c2n1 [Compound 359]

>  <pKi>
6.30 to 7.00

$$$$
>  <MOLECULE>
Cc1cccc(C)c1CS(=O)(=O)Nc1cc(Cn2c(C(=O)OCCN3CCOCC3)cc3ccc(CN)nc32)c2ccccc2c1 [Compound 199]

>  <pKi>
6.30 to 7.00

$$$$
>  <MOLECULE>
Cc1cccc(C)c1CS(=O)(=O)Nc1cc(Cn2c(C(=O)OCC3CCN(C=O)CC3)cc3ccc(CN)nc32)c2ccccc2c1 [Compound 198]

>  <pKi>
≥ 7.00

$$$$
>  <MOLECULE>
NCc1ccc2cc(C(=O)O)n(Cc3cc(NS(=O)(=O)CCc4ccccc4)cc4ccccc34)c2n1 [Compound 230]

>  <pKi>
6.30 to 7.00

$$$$
>  <MOLECULE>
COC(=O)NCCNC(=O)c1cc2ccc(CN)nc2n1Cc1cc(NS(=O)(=O)CC[C@@H]2CCCN2)cc2ccccc12 [Compound 258]

>  <pKi>
6.30 to 7.00

$$$$
>  <MOLECULE>
CN1CCC(COC(=O)c2cc3ccc(CN)nc3n2Cc2cc(NS(=O)(=O)CC34CC(F)(C3)C4)cc3ccccc23)CC1 [Compound 248]

>  <pKi>
5.52 to 6.30

$$$$
>  <MOLECULE>
C[C@@H]1OCCC1S(=O)(=O)Nc1cc(Cn2c(C(=O)O)cc3ccc(CN)nc32)c2ccccc2c1 (stereo partly shown) [Compound 272]

>  <pKi>
5.52 to 6.30

$$$$
>  <MOLECULE>
Cc1ccccc1CS(=O)(=O)Nc1cc(Cn2c(C(=O)O)cc3ccc(CN)nc32)c2ccccc2c1 [Compound 212]

>  <pKi>
≥ 7.00

$$$$
>  <MOLECULE>
CN(C)CCOC(=O)c1cc2ccc(CN)nc2n1Cc1cc(NS(=O)(=O)CC2CCNCC2)cc2ccccc12 [Compound 271]

>  <pKi>
5.52 to 6.30

$$$$
>  <MOLECULE>
CN1CCC(COC(=O)c2cc3ccc(CN)cc3n2Cc2cc(NS(=O)(=O)Cc3ccsc3)cc3ccccc23)CC1 [Compound 374]

>  <pKi>
≥ 7.00

$$$$
>  <MOLECULE>
CS(=O)(=O)N1CCC(CNC(=O)Nc2cc(Cn3c(C(=O)O)cc4ccc(CN)nc43)c3ccccc3c2)CC1 [Compound 293]

>  <pKi>
6.30 to 7.00

$$$$
>  <MOLECULE>
Cc1ccccc1CS(=O)(=O)Nc1cc(Cn2c(C(=O)OCC3CCN(C)CC3)cc3ccc(CN)nc32)c2ccccc2c1 [Compound 204]

>  <pKi>
≥ 7.00

$$$$
>  <MOLECULE>
C[C@H](c1ccccc1)S(=O)(=O)Nc1cc(Cn2c(C(=O)OCC3CCN(C)CC3)cc3ccc(CN)cc32)c2ccccc2c1 [Compound 378]

>  <pKi>
≥ 7.00

$$$$
>  <MOLECULE>
NCc1ccc2cc(CO)n(Cc3cc(NS(=O)(=O)CC4CCNCC4)cc4ccccc34)c2n1 [Compound 362]

>  <pKi>
6.30 to 7.00

$$$$
>  <MOLECULE>
CC(C)[C@H]1CCCN1C(=O)Nc1cc(Cn2c(C(=O)O)cc3ccc(CN)nc32)c2ccccc2c1 [Compound 299]

>  <pKi>
5.52 to 6.30

$$$$
